Cited source: patent US20200215018A1

Exercise: state measured pIC50 for each of the molecules provided.
System: ovarian carcinoma (SKOV3)
Assay: In vitro cytotoxicity against SKOV3
Type: cell-based, human
Settings: gold(I) complex study; read-out: IC50 SKOV3
Numbers only, as −log10 of the molar value.

- molecule: "N.N.[Cl][Pt][Cl] [Cisplatin, reference compound]"
  pIC50: 4.91

API: the following record is the query input.
Ask: Look up pIC50 for this molecule: [C](#[N+]Cc1ccccc1)[Au-][S]c1ncccn1
Reply: 5.20

* * *

Tested on: lung carcinoma (A549)
Assay: In vitro cytotoxicity against A549
Conditions: read-out: (IC50 ± SD) μM A549; Table 3, trans-Pt(II) thiolate series A, 3a-e and ligands
quantity kind: IC50 (µM)
One number for each entry, in µM.

- compound: "C=CC[P+](c1ccccc1)(c1ccccc1)[Pt-2]([Cl])([Cl])[P+](CC=C)(c1ccccc1)c1ccccc1 [complex A, cis-[Pt(PPh2allyl)2Cl2]]"
  experimental system: "lung carcinoma (A549)"
  obs value: 22.5
- compound: "N.N.[Cl][Pt][Cl] [Cisplatin, reference compound]"
  experimental system: "lung carcinoma (A549)"
  obs value: 9.71

Ask: I'd like to know its IC50. The compound in question is C=CC[P+](c1ccccc1)(c1ccccc1)[Pt-2]([S]c1ccccn1)([S]c1ccccn1)[P+](CC=C)(c1ccccc1)c1ccccc1 [complex 3a, trans-[Pt(PPh2allyl)2(κ^1—S—SR)2]]
Reply: 4.31

* * *

Consider the following molecules; for each one, report its IC50.
Test system: breast carcinoma (MCF-7)
Assay: In vitro cytotoxicity against MCF-7
Type: cell-based, human
Conditions: Table 1, Pt(II) isocyanide series 1a-c, 2a-c; read-out: IC50 (μM ± SD) MCF-7
Numbers only, in µM.

Here are 5 molecules together with their reported answers.
- molecule: "N.N.[Cl][Pt][Cl] [Cisplatin, reference compound]"
  unit abbrev: "µM"
  IC50: 13.4
- molecule: "Cc1cc[c]([Pt-2]([C]#[N+]C(C)(C)C)([C]#[N+]C(C)(C)C)[c]2ccc(C)cc2)cc1 [complex 2a, [(p-tolyl)2Pt(CNR)2] (R=t-butyl)]"
  unit abbrev: "µM"
  IC50: 11.1
- molecule: "Cc1cc[c]([Pt-2]([C]#[N+]C2CCCCC2)([C]#[N+]C2CCCCC2)[c]2ccc(C)cc2)cc1 [complex 2c, [(p-tolyl)2(CNR)2] (R=cyclohexyl)]"
  unit abbrev: "µM"
  IC50: 72.4
- molecule: "[CH3][Pt-2]([CH3])([C]#[N+]C1CCCCC1)[C]#[N+]C1CCCCC1 [complex 1c, [Me2Pt(CNR)2] (R=cyclohexyl)]"
  unit abbrev: "µM"
  IC50: 68.3
- molecule: "[CH3][Pt-2]([CH3])([C]#[N+]Cc1ccccc1)[C]#[N+]Cc1ccccc1 [complex 1b, [Me2Pt(CNR)2] (R=benzyl)]"
  unit abbrev: "µM"
  IC50: 12.5

Continue with the molecule presented below.
Ask: Need IC50, item Cc1cc[c]([Pt-2]([C]#[N+]Cc2ccccc2)([C]#[N+]Cc2ccccc2)[c]2ccc(C)cc2)cc1 [complex 2b, [(p-tolyl)2(CNR)2] (R=benzyl)]
Reply: 62.3

* * *

Give IC50 for every item shown.
Tested on: MCF-10A; normal human epithelial breast cell line
Test: Proliferation of non-tumoral cell line MCF-10A
Type: cell-based
Conditions: Table 3, non-cancerous cell line; read-out: (IC50 ± SD) μM MCF-10A

Below are worked cases with known answers.
- molecule: "C=CC[P+](c1ccccc1)(c1ccccc1)[Pt-2]([S]c1ccccn1)([S]c1ccccn1)[P+](CC=C)(c1ccccc1)c1ccccc1 [complex 3a, trans-[Pt(PPh2allyl)2(κ^1—S—SR)2]]"
  IC50: "38.4 µM"
- molecule: "C=CC[P+](c1ccccc1)(c1ccccc1)[Pt-2]([Cl])([Cl])[P+](CC=C)(c1ccccc1)c1ccccc1 [complex A, cis-[Pt(PPh2allyl)2Cl2]]"
  IC50: "68.7 µM"

Ask: # IC50 lookup, item N.N.[Cl][Pt][Cl] [Cisplatin, reference compound]
Reply: 29.5 µM
